molecular target: cathepsin L (Homo sapiens); construct: purchased Calbiochem 219402; test: Inhibition of cathepsin L; assay type: biochemical; conditions: Table III; 1 uM; read-out: Cat L % I @ 1 uM
Sequence (P07711 114-288 limits assumed): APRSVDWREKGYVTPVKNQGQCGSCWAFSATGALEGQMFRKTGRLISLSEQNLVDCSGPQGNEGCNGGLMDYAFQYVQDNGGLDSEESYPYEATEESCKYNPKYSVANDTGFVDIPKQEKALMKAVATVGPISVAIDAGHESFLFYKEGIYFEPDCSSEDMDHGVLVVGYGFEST
Sequence (P07711 292-333 limits assumed): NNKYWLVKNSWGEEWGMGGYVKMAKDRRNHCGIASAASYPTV
Square brackets hold non-standard residues; d marks the D form. Peptide text beside a SMILES is read from it. * marks the point of attachment. ξ: configuration not given here. d(αMeF) = C[C@@](N)(Cc1ccccc1)C(=O)O; 2Pal = N[C@@H](Cc1ccccn1)C(=O)O; ξF = NC(Cc1ccccc1)C(=O)O; Bn = c1ccc(C*)cc1; Ms = CS(=O)(=O)*
For each of the compounds below, state its inhibition at 1 µM.
# number only, unit % dropped from output

Kindly note the recorded inhibition at 1 µM for CCNC(=O)C(=O)[C@H](Cc1ccccc1)NC(=O)[C@@H](COCc1ccccc1)NS(C)(=O)=O [Compound 81] , which is 100

Kindly note the recorded inhibition at 1 µM for O=C[C@H](Cc1ccccc1)NC(=O)[C@@H](Cc1c[nH]c2ccccc12)NS(=O)(=O)c1cccs1 [Compound 73] , which is 100

Kindly note the recorded inhibition at 1 µM for CC(C)(C)OC(=O)NCCCC[C@@H](C=O)NC(=O)[C@@H](COCc1ccccc1)NS(C)(=O)=O [Compound 93] , which is 100

Kindly note the recorded inhibition at 1 µM for CS(=O)(=O)N[C@H](COCc1ccccc1)C(=O)N[C@@H](Cc1ccccc1)C(O)OCc1ccccc1 (some centres unmarked) [Compound 135] , which is 100

Kindly note the recorded inhibition at 1 µM for C[C@](Cc1ccccc1)(NS(C)(=O)=O)C(=O)NC(C=O)Cc1ccccc1 (some centres unmarked) [Compound 105] (Ms-[d(αMeF)]-[ξF]-aldehyde) , which is 71

Kindly note the recorded inhibition at 1 µM for CS(=O)(=O)N[C@H](COCc1ccccc1)C(=O)N[C@@H](Cc1ccccc1)C(O)S(=O)(=O)O (some centres unmarked) [Compound 128] , which is 100

Kindly note the recorded inhibition at 1 µM for CN(Cc1ccccc1)C(=O)C[C@@H](NS(C)(=O)=O)C(=O)N[C@H](C=O)Cc1ccccc1 [Compound 78] , which is 100

Kindly note the recorded inhibition at 1 µM for CN([C@H](COCc1ccccc1)C(=O)N[C@H](C=O)Cc1ccccc1)S(C)(=O)=O [Compound 83] , which is 53

Kindly note the recorded inhibition at 1 µM for CC(=O)Nc1ccc(S(=O)(=O)N[C@H](COCc2ccccc2)C(=O)N[C@H](C=O)Cc2ccccc2)cc1 [Compound 51] , which is 100

Kindly note the recorded inhibition at 1 µM for C[C@H](OCc1ccccc1)[C@@H](NS(C)(=O)=O)C(=O)N[C@H](C=O)Cc1ccccc1 [Compound 43] (Ms-[dT](Bn)-Phe-aldehyde) , which is 68

Kindly note the recorded inhibition at 1 µM for C[N+]([O-])=C[C@H](Cc1ccccc1)NC(=O)[C@@H](COCc1ccccc1)NS(C)(=O)=O [Compound 116] , which is 100

Kindly note the recorded inhibition at 1 µM for CS(=O)(=O)N[C@H](COCc1ccccc1)C(=O)N[C@H](C=[N+]([O-])Cc1ccccc1)Cc1ccccc1 [Compound 117] , which is 100

Kindly note the recorded inhibition at 1 µM for CS(=O)(=O)N[C@H](COCc1ccccc1)C(=O)N[C@@H](Cc1ccccc1)C(=O)CCc1ccccc1 [Compound 125] , which is 39

Kindly note the recorded inhibition at 1 µM for CS(=O)(=O)N[C@H](COCc1ccccc1)C(=O)N[C@H](C=O)Cc1ccccn1 [Compound 109] (Ms-[dS](Bn)-[2Pal]-aldehyde) , which is 98
